- Target of assay: MKK4 (Homo sapiens, UniProt P45985)
- Construct: S84/D399; host or cells: HEK-293
- Sequence (P45985 84-399): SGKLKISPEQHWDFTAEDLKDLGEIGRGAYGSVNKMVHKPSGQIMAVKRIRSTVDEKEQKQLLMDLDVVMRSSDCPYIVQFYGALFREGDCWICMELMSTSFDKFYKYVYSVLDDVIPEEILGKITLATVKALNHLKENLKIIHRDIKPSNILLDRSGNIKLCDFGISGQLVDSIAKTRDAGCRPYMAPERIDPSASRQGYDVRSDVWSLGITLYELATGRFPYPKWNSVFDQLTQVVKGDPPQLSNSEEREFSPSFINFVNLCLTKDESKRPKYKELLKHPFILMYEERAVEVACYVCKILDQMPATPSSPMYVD
- Assay text: KINOMEscan competition binding assay, MKK4
- Assay context: residual percent of control binding (PoC) at 100 nM
Measure name: MKK4 [% Ctrl @ 100 nM

>>> reported_value("Cc1cccc(CS(=O)(=O)Nc2ccc(F)c(C(=O)c3c[nH]c4ncc(-c5ccc(Cl)cc5)cc34)c2F)c1 [Example 37]")
"+ (3 ≤ PoC < 30)"
>>> reported_value("CCCS(=O)(=O)Nc1ccc(F)c(C(=O)c2c[nH]c3ncc(-c4ccc5ccsc5c4)cc23)c1F [Example 51]")
"+ (3 ≤ PoC < 30)"
>>> reported_value("Cc1cc(F)ncc1-c1cnc2[nH]cc(C(=O)c3ccc(F)c(NS(=O)(=O)CCC(F)(F)F)c3F)c2c1 [Example 157]")
"+++ (PoC < 1)"
>>> reported_value("C#Cc1cnc2[nH]cc(C(=O)c3c(F)ccc(NS(=O)(=O)CCC)c3F)c2c1 [Example 18]")
"+ (3 ≤ PoC < 30)"
>>> reported_value("CCCS(=O)(=O)Nc1ccc(F)c(C(=O)c2c[nH]c3ncc(C4=CCNCC4)cc23)c1F [Example 242]")
"+ (3 ≤ PoC < 30)"
>>> reported_value("CCCS(=O)(=O)Nc1ccc(F)c(C(=O)c2c[nH]c3ncc(-c4c[nH]c(=O)cn4)cc23)c1F [Example 88]")
"+++ (PoC < 1)"

Note down MKK4 [% Ctrl @ 100 nM recorded for CCCS(=O)(=O)Nc1ccc(F)c(C(=O)c2c[nH]c3ncc(-c4ccc(C(=O)O)cc4)cc23)c1F [Example 108]
+++ (PoC < 1)

Note down MKK4 [% Ctrl @ 100 nM recorded for CCCS(=O)(=O)Nc1ccc(F)c(C(=O)c2c[nH]c3ncc(-c4cc[nH]c4)cc23)c1F [Example 100]
+ (3 ≤ PoC < 30)
